Provide the recorded PBM binding z-score for the entries that follow.
Tested on: PPARg:RXRa DBDmut IVT, anti-RXR (DBD mutation: RXRa K156A/R161A, NR concentration 270 nM, RXRa partner concentration 90 nM)
method-summary: PBM binding z-score (relative to random genomic background probes); higher = stronger binding; sequences stand for … in GC…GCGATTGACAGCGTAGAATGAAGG

Item: ATCTCTAGGTAACATGTTCAGTGAAAGAGAGGAC | PBM binding z-score: 3.39

Item: GCTGCTAGGTCAGCTTGGTCAGCTAACGGGTACG | PBM binding z-score: 3.14

Item: GGAACGAGGGCATTCGAGTTGATAGCCTGGCGAT | PBM binding z-score: 3.64

Item: GGAACGAGCGCATTCGAGTTGATAGCATGGCGAT | PBM binding z-score: -0.641

Item: TGAATAAGGTTATAAGATCAGGGAACGTTGCAAA | PBM binding z-score: 0.667

Item: GCTATTTGTTGAAAGGGCAACCGAATGATTCTCG | PBM binding z-score: 0.563

Item: AGTCAAAGTTCAGGACGGGGTAACGTAAAGCACG | PBM binding z-score: 0.312

Item: CCTACTGGGCCATTCAGAGTTCATTGATCATATG | PBM binding z-score: 4.56

Item: CGTGAAAGTTCAACTAAGGTAACGTAAAGCACGC | PBM binding z-score: -0.0451

Item: TTACCAAGGTGAAGCTCGTTGATCCCTCTGTAGA | PBM binding z-score: 1.63

Item: CATCAAAGTTCAAGGTAACGTAACAGAAAGCAGC | PBM binding z-score: 0.753

Item: TCTTGTAGATCAAGCAGGTTGAGAAAGCCTGAGT | PBM binding z-score: 1.7

Item: ATATGTAGGTGACATCCGGGTCATTCAGGCTATG | PBM binding z-score: 7.69

Item: GCTAGCAGGCCATTTAGGTCACTCAATGACGGGC | PBM binding z-score: 1.71

Item: CCTACTGGGCCAAAAAGGTCATTCATGCCGATAA | PBM binding z-score: 3.69

Item: AGAATGAGGTTATACATAGATCAGGGAAGAAAGT | PBM binding z-score: 2.35

Item: ACTATTAGTTGACTTATGGCAACCGATACGACGC | PBM binding z-score: 0.0133

Item: TCTGCTAGGTCAGTTGGTCAGCTAACGAGCTGCC | PBM binding z-score: 2.77

Item: GGAACGAGGGTATTCGAGTTGATAGCATGGCGAT | PBM binding z-score: 0.383

Item: CCGCCTGGGGCAAAGGTTACCATACTCAGTACGA | PBM binding z-score: 0.0766

Item: ATCGAAAGGTCGACTAGGTGAGTATACACCGTTT | PBM binding z-score: 0.845

Item: CTCGAAAGGGCGGTTGAGGTGAGTATACGGATAA | PBM binding z-score: -0.112

Item: ATCGAAAGCTCGAGGTGAGTATAGAGAAAGGGAA | PBM binding z-score: -0.98

Item: CGATCTAGGTCATTGACAGGACAGTGAATAGTAA | PBM binding z-score: 7.84

Item: CGTCCAAGGTCATAGGAGGTCAGTGATGACAGAT | PBM binding z-score: 3.37

Item: GGAACCAGGGCATTCGAGTTGATAGCATGGCGAT | PBM binding z-score: 3.39

Item: CGTCCAAGGTCATAGGAGGTTAGTGAAGACAGAT | PBM binding z-score: 2.69

Item: CGTCAAAGTTCAACTACGGTAACGTAAAGCACGC | PBM binding z-score: 0.132

Item: AGAATAAGGTTACCAAAGATCAGGGAAACGCTTG | PBM binding z-score: 2.55

Item: TCATATAGGTAAATTCTAGGTGAAAGTCCGATCT | PBM binding z-score: 3.83

Item: CGTGCAAGGTCAAGGTCAGTGAAAGAGACTCGAA | PBM binding z-score: 3.53

Item: ATCTCTAGGTAAAAGTTCAGTGACTCCCGAGGAT | PBM binding z-score: 2.54

Item: ATCTCTAGGTAAGACTCAGTTCGGTGAAGAACGC | PBM binding z-score: 2.26

Item: GATCGGAGGACAAGGTCAGAGCTTTGTCCGTAGA | PBM binding z-score: -0.00086

Item: ACAGACAGGTGAGTCAAGGTAACTCAGCTGGACG | PBM binding z-score: 0.393

Item: TCGAGCAGGTTAGGGGCATTCAGAATGGCGTCGA | PBM binding z-score: 0.212

Item: CCGACTGGGGCAAAGATTACCATACTCAGTACGA | PBM binding z-score: 4.42

Item: AATACAGGGCCATCGTAGGCCAGAGTACGCACAG | PBM binding z-score: 0.0782

Item: GTACCAAGGTGAATAAGTCGTTGATGAGTAGGCG | PBM binding z-score: 1.47

Item: CCTAGTTGGTCAGGAGGTCACCCACCGGATATGA | PBM binding z-score: 0.575

Item: CCTAGTTTGTCAGGAGGTCACACACCGGATATGA | PBM binding z-score: 1.14

Item: CCTTACGCGTCAAGGTTATAGCACGGGTGGTACG | PBM binding z-score: 0.185

Item: ATCTCTAGGAAACCAAGTTCAGTGAATGCCGAAC | PBM binding z-score: -0.471

Item: ATATGTAGGTTACATCCGGGTCATTGAGGCTATG | PBM binding z-score: 7.27

Item: CTCGAAAGGTCGGTTGAGGCGAGTATACGGATAA | PBM binding z-score: -0.316

Item: GGAACGAGGGCAGAGTTGATAGCATCTGTCGACG | PBM binding z-score: 2.1

Item: ATACCAAGGTGATCGTGAGGCCGTTGATACTAAC | PBM binding z-score: 0.533

Item: CCTACTGGGCCATCAGGTCGTTGATATCAACGTT | PBM binding z-score: 4.23

Item: ATCGAAAGGTCGAAGGTGAGGATACCCACCCGAA | PBM binding z-score: 0.202

Item: TCTTGTAGATCAAGAGGAGGTTAAGAAAGATCGA | PBM binding z-score: 1.29

Item: ACTCGGAGGACAAAGGTCCGAGCTACGCCAGTGA | PBM binding z-score: 0.177

====

System: PXR homodimer (NR concentration 270 nM)
method-summary: PBM binding z-score (relative to random genomic background probes); higher = stronger binding; sequences stand for … in GC…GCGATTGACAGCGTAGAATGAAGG
Please use Met whenever PBM binding z-score is not below 0.9, and Not met whenever it is.

Could you please find out whether AACTCTAGGTAACAAGTTCAGTGAAAGAGAGGAC has PBM binding z-score that meets 0.9 or exceeds it?
Met

Could you please find out whether CCTTACCGGTCACGAGGTTATAGCACGACGAGCG has PBM binding z-score that meets 0.9 or exceeds it?
Not met

Could you please find out whether AATACAGGGTCATCGTAGGCCTGAGTACGCACAG has PBM binding z-score that meets 0.9 or exceeds it?
Not met

Could you please find out whether ACTAGCAGGCCAAGTTTGGGTTACTCAAACAAAG has PBM binding z-score that meets 0.9 or exceeds it?
Not met

Could you please find out whether AGTCAAAGTTCAGGACGAGGAAACGTAAAGCACG has PBM binding z-score that meets 0.9 or exceeds it?
Not met

Could you please find out whether TCTTGTAGATAAAGCAGGTTAAGAAAGCCTGAGT has PBM binding z-score that meets 0.9 or exceeds it?
Not met

Could you please find out whether ATCTCTAGGTAAAGATAGTTTAGTGAATGCAAAT has PBM binding z-score that meets 0.9 or exceeds it?
Not met

Could you please find out whether CAAACTAGGTCACCGGAAGGTCAAAGCCCGCATG has PBM binding z-score that meets 0.9 or exceeds it?
Met

Could you please find out whether CCTACTGGGCCATTCAGAGGTCAGTGATCATATG has PBM binding z-score that meets 0.9 or exceeds it?
Not met

Could you please find out whether AGTCAAAGTTCATCTAGGTAGCGTAAGATATGCT has PBM binding z-score that meets 0.9 or exceeds it?
Met

Could you please find out whether ATTTCTAGGTAAAGATAGTTCAGTGAATGCAAAT has PBM binding z-score that meets 0.9 or exceeds it?
Met

====

Tested on: PPARg:RXRa IVT, anti-PPARg (NR concentration 270 nM, RXRa partner concentration 90 nM)
method-summary: PBM binding z-score (relative to random genomic background probes); higher = stronger binding; sequences stand for … in GC…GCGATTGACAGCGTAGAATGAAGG
Please use rule met whenever PBM binding z-score is not below 3, and rule not met whenever it is.

Could you please find out whether TTAACAAGGTGAAGGTCGTTGATCCCTCTGTAGA has PBM binding z-score that meets 3 or exceeds it?
rule met

Could you please find out whether GCTTCTAGGTCAGGTTGGTCAGCTAACGGGTACG has PBM binding z-score that meets 3 or exceeds it?
rule met

Could you please find out whether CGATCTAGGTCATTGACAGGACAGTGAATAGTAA has PBM binding z-score that meets 3 or exceeds it?
rule met

Could you please find out whether AGAATGAGGTTACCAAAGATCAAGGAAACGCTTG has PBM binding z-score that meets 3 or exceeds it?
rule met

Could you please find out whether AGAACGAGGGCACGCTGACTTGATAGCAGAGTAG has PBM binding z-score that meets 3 or exceeds it?
rule met

Could you please find out whether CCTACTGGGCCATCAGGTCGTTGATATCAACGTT has PBM binding z-score that meets 3 or exceeds it?
rule met

Could you please find out whether CCTGCTAGGTCAATGATCAGCTAAAGCAGCTCGC has PBM binding z-score that meets 3 or exceeds it?
rule met

Could you please find out whether ATCTCTAGGTAACCAAGTTCAGTTAATGCCGAAC has PBM binding z-score that meets 3 or exceeds it?
rule met

Could you please find out whether AGCGAAAGGTCGACGAGGTGAGTATACACCGTTT has PBM binding z-score that meets 3 or exceeds it?
rule not met

Could you please find out whether TCTATTAGTTGATTAGAGCAACCGAAACAGCGGA has PBM binding z-score that meets 3 or exceeds it?
rule not met

Could you please find out whether GCATATAGGAAATACAAGGTGAAAGTCCGATTGT has PBM binding z-score that meets 3 or exceeds it?
rule not met
